Taken from ChEMBL document CHEMBL1125296.

Organism: Homo sapiens
Assay: Inhibition of ADP-induced human platelet aggregation
Type: functional, organism-based
Exercise: state measured pIC50 for each of the molecules provided.
When answering, recall that pIC50 equals minus log10 of the concentration in mol/L, and write that number alone.

# input Would you mind telling me what pIC50 value was observed for O=C(O)COCCCCCCn1nc(-c2ccccc2)c(-c2ccccc2)c1-c1ccccc1 ?
# output 6.36

# input Try this molecule next: O=C(O)CS(=O)(=O)CCCCCCn1nc(-c2ccccc2)c(-c2ccccc2)c1-c1ccccc1
# output 4.66

# input Field entry: O=C(O)CCCCCCCn1ncc(-c2ccccc2)c1-c1ccccc1
# output 5.82

# input Do the same for O=C(O)C[S+]([O-])CCCCCCn1nc(-c2ccccc2)c(-c2ccccc2)c1-c1ccccc1 (stereo not given) please
# output 5.19

# input Continue with O=C(O)CCCCCCCCCn1nc(-c2ccccc2)c(-c2ccccc2)c1-c1ccccc1
# output 5.26

# input Also c1ccc(-c2nn(CCCCCCCCc3nnn[nH]3)c(-c3ccccc3)c2-c2ccccc2)cc1 , if possible.
# output 5.98

# input One more molecule: O=C(O)CSCCCCCCn1nc(-c2ccccc2)c(-c2ccccc2)c1-c1ccccc1
# output 6.06

# input Here is the next molecule: NC(=O)CCCCCCCCn1nc(-c2ccccc2)c(-c2ccccc2)c1-c1ccccc1
# output 4.48

# input Entry to check: COC(=O)CCCCCCCCn1nc(-c2ccccc2)c(-c2ccccc2)c1-c1ccccc1
# output 5.37

# input And O=C(O)CCCCCCCCCCn1nc(-c2ccccc2)c(-c2ccccc2)c1-c1ccccc1 ?
# output 4.73

# input Further, for O=C(O)CCCCCCCn1nc(-c2ccccc2)c(-c2ccccc2)c1-c1ccccc1 ?
# output 5.47

====

Species on record: Homo sapiens
Test: Inhibition of ADP-induced human platelet aggregation
Assay type: functional, organism-based
Could you please report measured IC50 for the items listed next?
Return type: number; implicit unit µM.

# input Requested read-out: IC50. Entry: O=C(O)CCCCCCCCn1cc(-c2ccccc2)c(-c2ccccc2)n1
# output 4.5

# input Another: O=C(O)CCCCCCn1nc(-c2ccccc2)c(-c2ccccc2)c1-c1ccccc1
# output 22.4

# input Okay, and O=C(O)CCCCCCCCn1nc(-c2ccccc2)c(-c2ccccc2)c1-c1ccccc1 ?
# output 0.4

====

Target: Prostacyclin receptor (Homo sapiens)
Sequence (P43119 whole entry): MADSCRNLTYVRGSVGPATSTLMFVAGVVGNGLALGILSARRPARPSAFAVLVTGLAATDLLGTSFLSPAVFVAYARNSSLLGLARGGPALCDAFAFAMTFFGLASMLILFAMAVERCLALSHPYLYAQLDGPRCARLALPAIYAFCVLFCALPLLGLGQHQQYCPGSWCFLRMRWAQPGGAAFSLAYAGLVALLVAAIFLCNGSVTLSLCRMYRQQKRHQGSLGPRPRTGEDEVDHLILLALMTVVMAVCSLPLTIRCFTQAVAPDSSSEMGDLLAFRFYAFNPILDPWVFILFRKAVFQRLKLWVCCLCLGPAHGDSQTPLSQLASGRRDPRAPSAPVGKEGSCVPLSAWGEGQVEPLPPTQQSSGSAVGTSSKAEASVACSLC
quantity: IC50 (nM)
Number in nM, nothing else.

# input Query: IC50; subject: O=C(O)CCCCCCCCn1nc(-c2ccccc2)c(-c2ccccc2)c1-c1ccccc1
# output 160

====

Organism: Homo sapiens
Test: Inhibition of ADP-induced human platelet aggregation
Assay type: functional, organism-based
pIC50: −log10 of the molar value.
Please go through the items and note down their pIC50.

# input Suppose we examine the compound CNC(=O)CCCCCCCCn1nc(-c2ccccc2)c(-c2ccccc2)c1-c1ccccc1 ; what pIC50 value has been reported?
# output < 4.17

# input # repeat for O=C(O)CCCCCCCn1cc(-c2ccccc2)c(-c2ccccc2)n1
# output < 4.07

# input Continue with O=C(O)CCCCCCCCn1nc(-c2ccccc2)cc1-c1ccccc1
# output < 4.18

# input Further, for O=C(O)CCCCCCCCCn1cc(-c2ccccc2)c(-c2ccccc2)n1 ?
# output < 4.09

# input Ok, now O=C(O)CCCCCCCCCn1ncc(-c2ccccc2)c1-c1ccccc1
# output < 4.09

# input And what about the compound O=C(O)CCCCCn1nc(-c2ccccc2)c(-c2ccccc2)c1-c1ccccc1 ?
# output < 4.11

# input Now try N#CCCCCCCCCn1nc(-c2ccccc2)c(-c2ccccc2)c1-c1ccccc1 .
# output < 4.14

# input Next compound: CCc1c(-c2ccccc2)nn(CCCCCCCCC(=O)O)c1-c1ccccc1
# output < 4.10

# input Again, but for O=C(O)CCCCCCCCn1nc(-c2ccccc2)c(Cc2ccccc2)c1-c1ccccc1
# output < 4.17
